Test system: U251 CNS
Field 'call' accepts y for active, n for inactive

Worked set:
Look up the recorded call for CCOC(=O)c1c(C)n(Cc2ccc(Cl)cc2Cl)c2c1cc(O)c1[nH]c(Cc3ccccc3)nc12 in this test.
n

Look up the recorded call for O=[N+]([O-])c1cc2c(ccc3ccccc32)o1 in this test.
n

***
Look up the recorded call for O=C1CC[C@@H]2[C@H]3CCC(=O)c4c3c(c3cccc(O)c3c4O)O[C@@]23C(=O)c2cccc(O)c2C(O)=C13 in this test.
n

Look up the recorded call for N#C/C(=C\c1ccccn1)c1nc2ccccc2o1 in this test.
n

Look up the recorded call for Cc1cc(N)c2cc(NC(=O)/C=C\c3ccccc3Cl)ccc2n1 in this test.
y
